target: MRGPRX4 (Homo sapiens, UniProt Q96LA9); assay: MRGPRX4 activation, Fluo-8 Ca2+ FLIPR assay in HEK293T cells stably expressing MRGPRX4; type: cell-based; conditions: Conc. (Log[M]) −5.5
Sequence (Q96LA9 whole entry): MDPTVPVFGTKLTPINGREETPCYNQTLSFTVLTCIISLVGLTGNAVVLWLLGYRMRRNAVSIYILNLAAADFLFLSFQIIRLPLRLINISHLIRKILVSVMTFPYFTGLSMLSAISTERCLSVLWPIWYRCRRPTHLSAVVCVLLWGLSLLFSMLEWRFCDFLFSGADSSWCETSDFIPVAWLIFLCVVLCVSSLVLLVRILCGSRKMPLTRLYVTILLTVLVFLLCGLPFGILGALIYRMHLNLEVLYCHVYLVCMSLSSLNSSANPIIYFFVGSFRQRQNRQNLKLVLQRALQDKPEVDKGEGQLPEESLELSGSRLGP
parameter measured: MRGPRX4 activation, fluorescence change (dF/F0), Average
Respond with the number and no other words.

Task: Could you tell me which MRGPRX4 activation, fluorescence change (dF/F0), Average is on file for CC(C[C@@H](C)[C@H]1CC[C@H]2[C@@H]3CC[C@@H]4CCCC[C@]4(C)[C@H]3CC[C@]12C)C(=O)O (stereo partly drawn) [2-1] ?
Result: −0.072

Task: Again, but for C[C@H](CC/C=C/C(=O)O)[C@H]1CC[C@H]2[C@@H]3CC[C@@H]4C[C@H](O)CC[C@]4(C)[C@H]3C[C@H](O)[C@]12C [RC-7]
Result: −0.038

Task: Again, but for CC[C@H]1[C@@H](OC(=O)c2cccc(I)c2)[C@H]2[C@@H]3[C@@H](O)C=C([C@H](C)CCC(=O)OC)[C@@]3(C)CC[C@@H]2[C@@]2(C)CCCC[C@@H]12 [3-3]
Result: −0.013
